Biological target: AKT1 E17K (Homo sapiens, UniProt P31749, E17K)
Sequence (P31749 whole entry E17K): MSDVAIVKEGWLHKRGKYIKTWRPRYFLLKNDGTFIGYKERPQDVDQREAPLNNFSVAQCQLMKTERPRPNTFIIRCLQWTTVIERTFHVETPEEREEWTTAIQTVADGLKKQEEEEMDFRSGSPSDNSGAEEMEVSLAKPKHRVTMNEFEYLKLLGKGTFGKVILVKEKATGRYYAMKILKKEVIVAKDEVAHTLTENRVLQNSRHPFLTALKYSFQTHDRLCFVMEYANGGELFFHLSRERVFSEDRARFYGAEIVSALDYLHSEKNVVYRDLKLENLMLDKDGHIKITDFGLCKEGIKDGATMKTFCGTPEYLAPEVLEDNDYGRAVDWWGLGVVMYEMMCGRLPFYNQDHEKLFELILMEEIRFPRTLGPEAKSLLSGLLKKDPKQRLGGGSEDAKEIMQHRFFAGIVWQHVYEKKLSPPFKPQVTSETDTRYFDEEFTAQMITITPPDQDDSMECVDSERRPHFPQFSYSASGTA
Experiment: Live cell target engagement by NanoBRET competitive probe displacement, AKT1 E17K
Settings: transfected HEK293 cells, 2 h at 37° C., read-out: AKT1 E17K IC50: GeoMean IC50
Procedure: Determining live cell AKT1 E17K, AKT1 WT, and AKT2 target engagement by NanoBRET competitive probe displacement. Live cell target engagement assays were performed as described (Vasta, J. D. et al. Cell Chem Biol 2018, 25(11), 206-214). […] After incubation for 2 h at 37° C., luciferase substrate and extracellular luciferase inhibitor were added to all wells, and luminescent intensity at 460 nm and 600 nm were measured on a multimode plate-reader. […]
pIC50: −log10 of the molar value.
Each entry below carries its recorded pIC50.

pIC50 of Nc1ncccc1-c1nc2ccc(-n3cccn3)nc2n1-c1ccc2c(c1)C1CC1C2NC(=O)c1ccc(O)c(C=O)c1 (stereo not drawn) on AKT1 E17K (Homo sapiens, UniProt P31749, E17K)? 5.70 to 7.00

Query pIC50 on AKT1 E17K (Homo sapiens, UniProt P31749, E17K) for CC1(NC(=O)c2ccc(O)c(C=O)c2)CCc2cc(-n3c(-c4cccnc4N)nc4ccc(-n5cccn5)nc43)ccc21 (stereo not drawn) ≤ 5.70

I'm curious: which pIC50 was measured for Nc1ncccc1-c1nc2ccc(-n3cccn3)nc2n1-c1ccc2c(c1)[C@@H](O)C[C@@H]2NC(=O)c1ccc(O)c(C=O)c1 (single isomer, unassigned) tested on AKT1 E17K (Homo sapiens, UniProt P31749, E17K)? 5.70 to 7.00

API: value(readout=pIC50, system=AKT1 E17K (Homo sapiens, UniProt P31749, E17K)) for record Nc1ncccc1-c1nc2ccc(-c3cncnc3)nc2n1-c1ccc2c(c1)CC[C@@H]2NC(=O)c1ccc(O)c(C=O)c1 7.00 to 8.00

Reported pIC50 for AKT1 E17K (Homo sapiens, UniProt P31749, E17K), given Cn1ccnc1Nc1ccc(C(=O)N[C@H]2CCc3cc(-n4c(-c5cccnc5N)nc5ccc(-n6cccn6)nc54)ccc32)cc1C=O ? 5.70 to 7.00

Can you look up pIC50 on AKT1 E17K (Homo sapiens, UniProt P31749, E17K) for CC(=O)Nc1ccc(C(=O)N[C@H]2CCc3cc(-n4c(-c5cccnc5N)nc5ccc(C)nc54)ccc32)cc1C=O ? 5.70 to 7.00

----------
target: AKT1 WT (Homo sapiens); assay: Live cell target engagement by NanoBRET competitive probe displacement, AKT1 WT; conditions: transfected HEK293 cells, 2 h at 37° C., read-out: AKT1 WT IC50: GeoMean IC50
Sequence (P31749 whole entry): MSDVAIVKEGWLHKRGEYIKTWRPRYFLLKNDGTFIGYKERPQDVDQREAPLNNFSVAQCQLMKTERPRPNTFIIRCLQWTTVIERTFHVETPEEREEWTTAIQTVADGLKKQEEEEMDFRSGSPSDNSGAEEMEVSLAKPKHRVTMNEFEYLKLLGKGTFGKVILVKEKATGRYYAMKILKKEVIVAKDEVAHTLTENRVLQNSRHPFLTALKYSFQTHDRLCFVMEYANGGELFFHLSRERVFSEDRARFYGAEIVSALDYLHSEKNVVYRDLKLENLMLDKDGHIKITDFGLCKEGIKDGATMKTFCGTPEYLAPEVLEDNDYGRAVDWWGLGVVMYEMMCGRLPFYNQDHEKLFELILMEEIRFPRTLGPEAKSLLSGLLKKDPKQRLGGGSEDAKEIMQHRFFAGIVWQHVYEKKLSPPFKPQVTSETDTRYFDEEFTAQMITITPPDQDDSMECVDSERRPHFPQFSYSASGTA
pIC50: −log10 of the molar value.
Recorded pIC50 values for a group of compounds are listed next.

Example cases with answers are listed next.
{"columns": ["LINE NOTATION", "TESTED TARGET", "METRIC", "REPORTED MEASUREMENT"],
 "data": [
  ["N#Cc1ccn(-c2ccc3nc(-c4cccnc4N)n(-c4ccc5c(c4)CC[C@@H]5NC(=O)c4ccc(O)c(C=O)c4)c3n2)n1", "AKT1 WT (Homo sapiens)", "pIC50", "5.70 to 7.00"],
  ["Nc1ncccc1-c1nc2ccc(-n3cccn3)nc2n1-c1ccc2c(c1)CC[C@@H]2Nc1n[nH]c2c(C=O)cccc12", "AKT1 WT (Homo sapiens)", "pIC50", "5.70 to 7.00"]
]}

Proceed to the following item.
Name the recorded pIC50 for Cc1cc(-n2cccn2)nc2c1nc(-c1cccnc1N)n2-c1ccc2c(c1)CC[C@@H]2n1cnc2cc(O)c(C=O)cc2c1=O . 5.70 to 7.00

----------
molecular target: AKT1 E17K (Homo sapiens, UniProt P31749, E17K); experiment: Live cell target engagement by NanoBRET competitive probe displacement, AKT1 E17K; details: transfected HEK293 cells, 2 h at 37° C., read-out: AKT1 E17K IC50: GeoMean IC50
pIC50: −log10 of the molar value.
Parameter: pIC50. Scope: all listed entries.

Example compounds with recorded pIC50:
{"columns": ["LINE NOTATION", "TESTED TARGET", "pIC50"],
 "data": [
  ["Cc1cnc(-c2ccc3nc(-c4cccnc4N)n(-c4ccc5c(c4)CC[C@@H]5NC(=O)c4cc(C=O)c(O)cc4F)c3n2)s1", "AKT1 E17K (Homo sapiens, UniProt P31749, E17K)", "7.00 to 8.00"],
  ["CN(C)c1ccn(-c2ccc3nc(-c4cccnc4N)n(-c4ccc5c(c4)CC[C@@H]5NC(=O)c4ccc(O)c(C=O)c4)c3n2)n1", "AKT1 E17K (Homo sapiens, UniProt P31749, E17K)", "7.00 to 8.00"],
  ["Nc1ncccc1-c1nc2ccc(-c3ccccc3)nc2n1-c1ccc2c(c1)CC[C@@H]2NC(=O)c1cc(C=O)c2[nH]cnc2c1", "AKT1 E17K (Homo sapiens, UniProt P31749, E17K)", "> 8.00"],
  ["CS(=O)(=O)Nc1ccc(C(=O)N[C@H]2CCc3cc(-n4c(-c5cccnc5N)nc5ccc(-c6ccccc6)nc54)ccc32)cc1C=O", "AKT1 E17K (Homo sapiens, UniProt P31749, E17K)", "> 8.00"],
  ["Nc1ncccc1-c1nc2ccc(-n3cc4c(n3)COC4)nc2n1-c1ccc2c(c1)CC[C@@H]2NC(=O)c1ccc(O)c(C=O)c1", "AKT1 E17K (Homo sapiens, UniProt P31749, E17K)", "7.00 to 8.00"],
  ["CN(C)C(=O)Nc1ccc(C(=O)N[C@H]2CCc3cc(-n4c(-c5cccnc5N)nc5ccc(-n6cccn6)nc54)ccc32)cc1C=O", "AKT1 E17K (Homo sapiens, UniProt P31749, E17K)", "> 8.00"]
]}

Now for the compound whose pIC50 we want.
Give AKT1 E17K (Homo sapiens, UniProt P31749, E17K) pIC50 for Nc1ncccc1-c1nc2ccc(-c3ccccc3)nc2n1-c1ccc2c(c1)CC[C@@H]2NC(=O)c1ccc(NC(=O)N2CCOCC2)c(C=O)c1 7.00 to 8.00

----------
system: LAPC4 prostate cancer cells, which express the AKT1 E17K allele; experiment: Antiproliferative effects in LAPC4 cells (CellTiter Glo, 72 h); type: cell-based; conditions: Homo sapiens, LAPC4, 72 h, read-out: LAPC4 proliferation IC50: GeoMean IC50
pIC50: −log10 of the molar value.
METRIC: pIC50

{"columns": ["LINE NOTATION", "TESTED TARGET", "pIC50"],
 "data": [
  ["N#Cc1cc(-n2cccn2)nc2c1nc(-c1cccnc1N)n2-c1ccc2c(c1)CC[C@@H]2NC(=O)c1ccc(O)c(C=O)c1", "LAPC4 prostate cancer cells, which express the AKT1 E17K allele", "7.00 to 8.00"]
]}

Consider the compound shown here: Nc1ncccc1-c1nc2cccnc2n1-c1ccc2c(c1)CC[C@@H]2NC(=O)c1ccc(O)c(C=O)c1 What is its recorded pIC50? 5.70 to 7.00

Can you look up the measured pIC50 of Nc1ncccc1-c1nc2ccc(-c3ccn(C(F)F)n3)nc2n1-c1ccc2c(c1)CC[C@@H]2NC(=O)c1cc(C=O)c(O)c(F)c1F for me? 7.00 to 8.00

Could you share which pIC50 value was measured for Nc1ncccc1-c1nc2ccc(-c3ncco3)nc2n1-c1ccc2c(c1)CC[C@@H]2NC(=O)c1ccc(O)c(C=O)c1 ? 7.00 to 8.00

Need pIC50 of Nc1ncccc1-c1nc2ccc(-c3ccccc3)nc2n1-c1ccc2c(c1)CC[C@@H]2NC(=O)c1cc(C=O)c2[nH]ncc2c1 , thanks. > 8.00

Name the recorded pIC50 for N#Cc1cnn(-c2ccc3nc(-c4cccnc4N)n(-c4ccc5c(c4)CC[C@@H]5NC(=O)c4ccc(O)c(C=O)c4)c3n2)c1 . 5.70 to 7.00

----------
molecular target: AKT1 E17K (Homo sapiens, UniProt P31749, E17K); experiment: Live cell target engagement by NanoBRET competitive probe displacement, AKT1 E17K; conditions: transfected HEK293 cells, 2 h at 37° C., read-out: AKT1 E17K IC50: GeoMean IC50
pIC50: −log10 of the molar value.
METRIC: pIC50

Example entries and their recorded answers appear below.
{"columns": ["COMPOUND", "TESTED TARGET", "REPORTED MEASUREMENT"],
 "data": [
  ["Nc1ncccc1-c1nc2ccc(-n3cccn3)nc2n1-c1ccc2c(c1)CC[C@@H]2NC(=O)c1csc(C=O)n1 [Example 143]", "AKT1 E17K (Homo sapiens, UniProt P31749, E17K)", "5.70 to 7.00"],
  ["Cc1csc(-c2ccc3nc(-c4cccnc4N)n(-c4ccc5c(c4)CC[C@@H]5NC(=O)c4ccc(O)c(C=O)c4)c3n2)n1 [Example 133]", "AKT1 E17K (Homo sapiens, UniProt P31749, E17K)", "> 8.00"],
  ["Cc1cnc(N)c(-c2nc3ccc(-n4cccn4)nc3n2-c2ccc3c(c2)CC[C@@H]3NC(=O)c2ccc(O)c(C=O)c2)c1 [Example 167]", "AKT1 E17K (Homo sapiens, UniProt P31749, E17K)", "5.70 to 7.00"],
  ["Nc1ncccc1-c1nc2ccc(-c3ccccc3)nc2n1-c1ccc2c(c1)CC[C@@H]2NC(=O)c1ccc(O)c(C=O)c1 [Example 5]", "AKT1 E17K (Homo sapiens, UniProt P31749, E17K)", "7.00 to 8.00"],
  ["Nc1ncccc1-c1nc2ccc(-c3ccn(C(F)F)n3)nc2n1-c1ccc2c(c1)CC[C@@H]2NC(=O)c1ccc(O)c(C=O)c1 [Example 113]", "AKT1 E17K (Homo sapiens, UniProt P31749, E17K)", "> 8.00"],
  ["Nc1ncccc1-c1nc2ccc(-c3ccccc3)nc2n1-c1ccc2c(c1)C(=O)C[C@@H]2NC(=O)c1ccc(O)c(C=O)c1 [Example 74]", "AKT1 E17K (Homo sapiens, UniProt P31749, E17K)", "7.00 to 8.00"],
  ["Nc1ncccc1-c1nc2ccc(-n3cc(Cl)cn3)nc2n1-c1ccc2c(c1)CC[C@@H]2NC(=O)c1ccc(O)c(C=O)c1 [Example 78]", "AKT1 E17K (Homo sapiens, UniProt P31749, E17K)", "7.00 to 8.00"],
  ["COc1cc(-n2cccn2)nc2c1nc(-c1cccnc1N)n2-c1ccc2c(c1)CC[C@@H]2NC(=O)c1cc(C=O)c(O)cc1F [Example 221]", "AKT1 E17K (Homo sapiens, UniProt P31749, E17K)", "7.00 to 8.00"],
  ["Cn1cc(-c2ccc3nc(-c4cccnc4N)n(-c4ccc5c(c4)CC[C@@H]5NC(=O)c4ccc(O)c(C=O)c4)c3n2)cn1 [Example 28]", "AKT1 E17K (Homo sapiens, UniProt P31749, E17K)", "7.00 to 8.00"],
  ["COc1cncc(-c2ccc3nc(-c4cccnc4N)n(-c4ccc5c(c4)CC[C@@H]5NC(=O)c4ccc(O)c(C=O)c4)c3n2)n1 [Example 80]", "AKT1 E17K (Homo sapiens, UniProt P31749, E17K)", "7.00 to 8.00"]
]}

# query: pIC50 of entry Nc1ncccc1-c1nc2ccc(-c3ccccc3)nc2n1-c1ccc2c(c1)CCC2NCCc1ccc(C=O)c(O)c1 (stereo not shown) [Example 1] 7.00 to 8.00

For the compound shown here, C#Cc1cc(O)c(C=O)cc1C(=O)N[C@H]1CCc2cc(-n3c(-c4cccnc4N)nc4ccc(-n5cccn5)nc43)ccc21 [Example 145] , give the reported pIC50. 7.00 to 8.00

I have this compound here, Nc1ncccc1-c1nc2ccc(-c3ncc(C(F)F)s3)nc2n1-c1ccc2c(c1)CC[C@@H]2NC(=O)c1ccc(O)c(C=O)c1 [Example 146] , and I need its recorded pIC50. 7.00 to 8.00

Source of measurements: patent US20260053834A1
